quantity: IC50

Checklist item: IC50 tested on Dual 3',5'-cyclic-AMP and -GMP phosphodiesterase 11A (Homo sapiens), entry CCC(=O)N1CC[C@H](Nc2ncnc3c2nc(-c2cnn(CC)c2C)n3C)C1 , value?
> 20 µM

Param readout = IC50; param system = Dual 3',5'-cyclic-AMP and -GMP phosphodiesterase 11A (Homo sapiens); param query = CCn1ncc(-c2nc3c(N[C@H]4CCN(C(=O)C5CCOCC5)C4)ncnc3n2C)c1C ; response: value
> 20 µM

* * *

- measured-target: Phosphatidylinositol 4,5-bisphosphate 3-kinase catalytic subunit delta isoform (Homo sapiens, UniProt O00329)
- Sequence (O00329 whole entry, canonical isoform): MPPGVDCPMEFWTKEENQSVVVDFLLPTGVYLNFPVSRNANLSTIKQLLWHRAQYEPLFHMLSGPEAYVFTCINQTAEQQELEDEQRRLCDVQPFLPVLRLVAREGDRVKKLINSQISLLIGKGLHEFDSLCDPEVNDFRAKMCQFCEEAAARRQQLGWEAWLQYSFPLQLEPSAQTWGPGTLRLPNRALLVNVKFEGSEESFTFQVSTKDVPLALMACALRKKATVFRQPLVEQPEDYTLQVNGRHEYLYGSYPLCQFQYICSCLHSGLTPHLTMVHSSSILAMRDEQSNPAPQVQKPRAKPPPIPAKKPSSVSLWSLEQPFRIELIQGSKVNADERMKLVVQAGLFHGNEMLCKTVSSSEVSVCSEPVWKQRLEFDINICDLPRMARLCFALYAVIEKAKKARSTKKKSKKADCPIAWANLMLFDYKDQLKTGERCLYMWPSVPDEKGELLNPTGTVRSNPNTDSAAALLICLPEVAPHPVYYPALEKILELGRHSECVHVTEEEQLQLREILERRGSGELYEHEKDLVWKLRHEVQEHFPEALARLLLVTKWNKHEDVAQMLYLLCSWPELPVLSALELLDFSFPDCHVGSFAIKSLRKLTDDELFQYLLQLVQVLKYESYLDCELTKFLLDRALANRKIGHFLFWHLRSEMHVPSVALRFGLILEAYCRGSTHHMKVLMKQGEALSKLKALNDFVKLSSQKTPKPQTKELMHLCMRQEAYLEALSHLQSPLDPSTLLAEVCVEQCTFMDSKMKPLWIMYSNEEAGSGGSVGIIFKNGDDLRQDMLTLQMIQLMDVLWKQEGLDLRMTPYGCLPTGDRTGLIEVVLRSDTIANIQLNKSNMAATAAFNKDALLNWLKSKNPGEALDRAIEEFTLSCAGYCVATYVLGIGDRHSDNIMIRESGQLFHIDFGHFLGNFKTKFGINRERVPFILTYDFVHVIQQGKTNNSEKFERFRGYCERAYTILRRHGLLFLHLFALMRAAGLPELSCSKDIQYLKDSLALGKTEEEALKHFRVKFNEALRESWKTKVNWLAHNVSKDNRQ
- test-description: Inhibition of PI3Kdelta in human whole blood assessed as reduction in anti-CD79b antibody-induced CD69 expression preincubated for 60 mins followed by anti-CD79b antibody stimulation and measured after 3 hrs by FACS analysis
- Assay type: tissue-based
Can you tell me IC50 for the items I'm about to list?
Form field: result (number plus unit)

Query (molecule): CCn1ncc(-c2nc3c(N[C@H]4CCN(C(=O)C5CC5)C4)ncnc3n2C)c1C ; field requested: IC50
35 nM

What does the record list as IC50 for CCn1ncc(-c2nc3c(N4CCC(n5c(=O)[nH]c6ncccc65)CC4)ncnc3n2C)c1C ?
810 nM

Give the measured IC50 of CCn1ncc(-c2nc3c(O[C@H]4CCN(C(=O)C5CCOCC5)C4)ncnc3n2C)c1C .
360 nM

* * *

- test-description: Drug recovery in rat bile after 24 hrs
- Format: ADME
- measurement-parameters: read-out: Drug recovery
quantity: dose excreted at 24 h

Reported dose excreted at 24 h for CCn1ncc(-c2nc3c(O[C@H]4CCN(C(=O)C5CCOCC5)C4)ncnc3n2C)c1C : what is it?
2%

* * *

Exercise: for every item that follows, state its recorded IC50.
- measured-target: cAMP and cAMP-inhibited cGMP 3',5'-cyclic phosphodiesterase 10A (Homo sapiens, UniProt Q9Y233)
- Sequence (Q9Y233 whole entry): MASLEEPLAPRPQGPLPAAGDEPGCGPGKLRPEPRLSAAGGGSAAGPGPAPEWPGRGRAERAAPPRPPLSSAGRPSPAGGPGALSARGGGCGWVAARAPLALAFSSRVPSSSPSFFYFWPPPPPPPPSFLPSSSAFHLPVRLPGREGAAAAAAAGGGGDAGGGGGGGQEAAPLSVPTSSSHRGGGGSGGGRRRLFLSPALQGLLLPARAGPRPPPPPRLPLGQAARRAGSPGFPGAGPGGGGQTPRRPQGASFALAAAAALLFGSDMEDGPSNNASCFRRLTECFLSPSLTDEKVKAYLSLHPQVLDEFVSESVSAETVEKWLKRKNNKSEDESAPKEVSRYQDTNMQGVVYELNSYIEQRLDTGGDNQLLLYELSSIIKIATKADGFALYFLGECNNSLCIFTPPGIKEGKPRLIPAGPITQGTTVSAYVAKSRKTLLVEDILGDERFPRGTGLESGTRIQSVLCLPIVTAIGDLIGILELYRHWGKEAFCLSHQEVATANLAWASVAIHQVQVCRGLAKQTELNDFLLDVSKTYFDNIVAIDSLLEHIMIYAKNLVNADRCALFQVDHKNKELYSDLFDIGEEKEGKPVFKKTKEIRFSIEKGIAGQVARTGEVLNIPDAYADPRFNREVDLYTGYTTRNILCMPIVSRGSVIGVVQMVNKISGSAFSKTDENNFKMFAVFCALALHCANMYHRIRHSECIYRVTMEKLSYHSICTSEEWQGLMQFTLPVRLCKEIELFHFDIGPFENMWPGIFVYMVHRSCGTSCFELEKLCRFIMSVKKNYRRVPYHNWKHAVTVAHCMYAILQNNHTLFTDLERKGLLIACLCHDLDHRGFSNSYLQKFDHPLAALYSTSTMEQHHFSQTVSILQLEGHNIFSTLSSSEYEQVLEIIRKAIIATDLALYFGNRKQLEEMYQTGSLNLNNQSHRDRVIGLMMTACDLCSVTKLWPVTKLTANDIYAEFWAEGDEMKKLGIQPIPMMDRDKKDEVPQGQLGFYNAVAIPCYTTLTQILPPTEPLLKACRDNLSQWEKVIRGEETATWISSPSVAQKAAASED

Looking for the measured IC50 of CCn1ncc(-c2nc3c(O[C@H]4CCN(C(=O)C5CCOCC5)C4)ncnc3n2C)c1C , can you help?
> 50 µM

Which measured IC50 value corresponds to CCC(=O)N1CC[C@H](Nc2ncnc3c2nc(-c2cnn(CC)c2C)n3C)C1 ?
> 20 µM

Can you share its IC50? I mean this compound: CCn1ncc(-c2nc3c(N4CCC(n5c(=O)[nH]c6ncccc65)CC4)ncnc3n2C)c1C
4.01 µM

Record request: IC50 value, item CCn1ncc(-c2nc3c(N[C@H]4CCN(C(=O)C5CCOCC5)C4)ncnc3n2C)c1C
> 20 µM

* * *

- test-description: Volume of distribution in Beagle dog
- Type: ADME, Canis lupus familiaris
- measurement-parameters: in vivo
quantity: Vd (L/kg)
Note: unit L/kg is implicit; provide only the numeric part.

Recorded Vd for CCn1ncc(-c2nc3c(O[C@H]4CCN(C(=O)C5CC5)C4)ncnc3n2C)c1C , please?
0.9

What does the data say about its Vd? Entry: CCn1ncc(-c2nc3c(O[C@H]4CCN(C(=O)C5CCOCC5)C4)ncnc3n2C)c1C
0.9

Look up Vd: CC[C@H](Nc1ncnc2c1nc(-c1cnn(CC)c1C)n2C)C(=O)N1C[C@@H](C)O[C@@H](C)C1
0.9

Fill in: Vd of CCn1ncc(-c2nc3c(N4CCC(n5c(=O)[nH]c6ncccc65)CC4)ncnc3n2C)c1C is ___
4.6

* * *

- test-description: Unbound volume of distribution in Wistar Han rat
- Format: ADME
- measurement-parameters: in vivo
Please provide measured Vdu for the entries that follow.
Report the value in L/kg with no unit label.

Entry CCC(=O)N1CC[C@H](Nc2ncnc3c2nc(-c2cnn(CC)c2C)n3C)C1 : reported Vdu = ?
4

# lookup: Vdu of CCn1ncc(-c2nc3c(N[C@H]4CCN(C(=O)C5CC5)C4)ncnc3n2C)c1C
4

# query: Vdu of entry CC[C@H](Nc1ncnc2c1nc(-c1cnn(CC)c1C)n2C)C(=O)N1C[C@@H](C)O[C@@H](C)C1
3

Can you look up the measured Vdu of CCn1ncc(-c2nc3c(N[C@H]4CCN(C(=O)C5CCOCC5)C4)ncnc3n2C)c1C for me?
3

Name the reported Vdu value associated with the molecule CCn1ncc(-c2nc3c(O[C@H]4CCN(C(=O)C5CCOCC5)C4)ncnc3n2C)c1C
2

Request the reported Vdu associated with CCn1ncc(-c2nc3c(N4CCC(n5c(=O)[nH]c6ncccc65)CC4)ncnc3n2C)c1C
4

What Vdu value was documented for this molecule, CCn1ncc(-c2nc3c(O[C@H]4CCN(C(=O)C5CC5)C4)ncnc3n2C)c1C ?
2

* * *

- test-description: Unbound volume of distribution in Beagle dog
- Format: ADME, Canis lupus familiaris
- measurement-parameters: in vivo
quantity: Vdu
The reply should read as a number followed by its unit.

Suppose we examine the compound CCn1ncc(-c2nc3c(N4CCC(n5c(=O)[nH]c6ncccc65)CC4)ncnc3n2C)c1C ; what Vdu value has been reported?
90 L/kg

Find the recorded Vdu belonging to CCn1ncc(-c2nc3c(O[C@H]4CCN(C(=O)C5CC5)C4)ncnc3n2C)c1C and report it.
2 L/kg

Consider the compound CC[C@H](Nc1ncnc2c1nc(-c1cnn(CC)c1C)n2C)C(=O)N1C[C@@H](C)O[C@@H](C)C1 and give its measured Vdu.
2 L/kg

// Vdu lookup, key: CCn1ncc(-c2nc3c(O[C@H]4CCN(C(=O)C5CCOCC5)C4)ncnc3n2C)c1C
3 L/kg

* * *

- test-description: Solubility of the compound
- Type: physicochemical
quantity: solubility

Give the measured solubility of CCn1ncc(-c2nc3c(O[C@H]4CCN(C(=O)C5CCOCC5)C4)ncnc3n2C)c1C .
> 10 mg/mL

* * *

- measured-target: High affinity cAMP-specific and IBMX-insensitive 3',5'-cyclic phosphodiesterase 8A (Homo sapiens, UniProt O60658)
- Sequence (O60658 whole entry): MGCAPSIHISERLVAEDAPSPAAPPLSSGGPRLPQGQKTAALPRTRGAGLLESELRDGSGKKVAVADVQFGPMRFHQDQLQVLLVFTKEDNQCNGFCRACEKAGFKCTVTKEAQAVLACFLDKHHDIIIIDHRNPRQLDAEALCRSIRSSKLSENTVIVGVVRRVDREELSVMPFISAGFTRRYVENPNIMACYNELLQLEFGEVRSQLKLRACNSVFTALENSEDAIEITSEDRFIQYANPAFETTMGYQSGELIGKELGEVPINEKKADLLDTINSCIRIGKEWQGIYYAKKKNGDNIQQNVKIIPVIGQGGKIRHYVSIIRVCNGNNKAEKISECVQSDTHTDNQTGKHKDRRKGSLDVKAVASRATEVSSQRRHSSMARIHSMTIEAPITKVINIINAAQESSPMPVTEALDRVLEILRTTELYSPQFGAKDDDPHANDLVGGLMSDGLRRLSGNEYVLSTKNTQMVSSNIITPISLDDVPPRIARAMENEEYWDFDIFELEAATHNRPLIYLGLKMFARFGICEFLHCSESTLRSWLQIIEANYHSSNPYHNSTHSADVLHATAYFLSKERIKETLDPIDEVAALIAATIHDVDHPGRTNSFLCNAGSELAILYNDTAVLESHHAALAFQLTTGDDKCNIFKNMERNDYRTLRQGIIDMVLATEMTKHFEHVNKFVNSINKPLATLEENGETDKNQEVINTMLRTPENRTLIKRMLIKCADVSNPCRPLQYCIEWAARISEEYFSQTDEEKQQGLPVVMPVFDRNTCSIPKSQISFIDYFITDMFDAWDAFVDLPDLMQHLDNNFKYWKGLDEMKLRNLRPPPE
For each record, write down the corresponding IC50.

May I ask what IC50 has been recorded for CCn1ncc(-c2nc3c(N[C@H]4CCN(C(=O)C5CCOCC5)C4)ncnc3n2C)c1C ?
> 20 µM

Can you share its IC50? I mean this compound: CCC(=O)N1CC[C@H](Nc2ncnc3c2nc(-c2cnn(CC)c2C)n3C)C1
> 20 µM

Look up IC50: CCn1ncc(-c2nc3c(O[C@H]4CCN(C(=O)C5CCOCC5)C4)ncnc3n2C)c1C
> 50 µM

* * *

- test-description: Intrinsic clearance in rat microsomes
- Type: ADME, Microsome
quantity: CLint scaled

Bench note: what CLint scaled did CCn1ncc(-c2nc3c(O[C@H]4CCN(C(=O)C5CCOCC5)C4)ncnc3n2C)c1C show?
< 110 mL/min/kg

* * *

- measured-target: PI3-kinase p110-alpha/p85-alpha (Homo sapiens, UniProt P42336)
- Sequence (P27986 whole entry): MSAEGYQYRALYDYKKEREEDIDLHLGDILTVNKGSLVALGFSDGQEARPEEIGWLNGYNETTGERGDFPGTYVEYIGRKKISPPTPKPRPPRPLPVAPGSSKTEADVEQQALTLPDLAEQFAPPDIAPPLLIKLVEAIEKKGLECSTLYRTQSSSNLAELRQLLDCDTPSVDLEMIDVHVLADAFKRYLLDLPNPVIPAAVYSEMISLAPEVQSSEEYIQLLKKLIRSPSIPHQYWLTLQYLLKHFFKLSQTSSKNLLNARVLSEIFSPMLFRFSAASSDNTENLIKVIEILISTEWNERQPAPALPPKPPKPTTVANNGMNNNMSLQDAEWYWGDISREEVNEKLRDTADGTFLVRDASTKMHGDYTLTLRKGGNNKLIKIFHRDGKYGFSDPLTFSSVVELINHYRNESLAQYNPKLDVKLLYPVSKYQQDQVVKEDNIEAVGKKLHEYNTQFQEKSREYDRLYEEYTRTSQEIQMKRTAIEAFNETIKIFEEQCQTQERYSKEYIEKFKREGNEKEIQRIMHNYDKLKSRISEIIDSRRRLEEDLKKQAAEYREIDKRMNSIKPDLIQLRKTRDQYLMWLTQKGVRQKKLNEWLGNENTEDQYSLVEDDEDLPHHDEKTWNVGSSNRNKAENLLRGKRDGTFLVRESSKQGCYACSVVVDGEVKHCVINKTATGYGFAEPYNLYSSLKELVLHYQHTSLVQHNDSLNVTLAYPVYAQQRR
- Sequence (P42336 whole entry): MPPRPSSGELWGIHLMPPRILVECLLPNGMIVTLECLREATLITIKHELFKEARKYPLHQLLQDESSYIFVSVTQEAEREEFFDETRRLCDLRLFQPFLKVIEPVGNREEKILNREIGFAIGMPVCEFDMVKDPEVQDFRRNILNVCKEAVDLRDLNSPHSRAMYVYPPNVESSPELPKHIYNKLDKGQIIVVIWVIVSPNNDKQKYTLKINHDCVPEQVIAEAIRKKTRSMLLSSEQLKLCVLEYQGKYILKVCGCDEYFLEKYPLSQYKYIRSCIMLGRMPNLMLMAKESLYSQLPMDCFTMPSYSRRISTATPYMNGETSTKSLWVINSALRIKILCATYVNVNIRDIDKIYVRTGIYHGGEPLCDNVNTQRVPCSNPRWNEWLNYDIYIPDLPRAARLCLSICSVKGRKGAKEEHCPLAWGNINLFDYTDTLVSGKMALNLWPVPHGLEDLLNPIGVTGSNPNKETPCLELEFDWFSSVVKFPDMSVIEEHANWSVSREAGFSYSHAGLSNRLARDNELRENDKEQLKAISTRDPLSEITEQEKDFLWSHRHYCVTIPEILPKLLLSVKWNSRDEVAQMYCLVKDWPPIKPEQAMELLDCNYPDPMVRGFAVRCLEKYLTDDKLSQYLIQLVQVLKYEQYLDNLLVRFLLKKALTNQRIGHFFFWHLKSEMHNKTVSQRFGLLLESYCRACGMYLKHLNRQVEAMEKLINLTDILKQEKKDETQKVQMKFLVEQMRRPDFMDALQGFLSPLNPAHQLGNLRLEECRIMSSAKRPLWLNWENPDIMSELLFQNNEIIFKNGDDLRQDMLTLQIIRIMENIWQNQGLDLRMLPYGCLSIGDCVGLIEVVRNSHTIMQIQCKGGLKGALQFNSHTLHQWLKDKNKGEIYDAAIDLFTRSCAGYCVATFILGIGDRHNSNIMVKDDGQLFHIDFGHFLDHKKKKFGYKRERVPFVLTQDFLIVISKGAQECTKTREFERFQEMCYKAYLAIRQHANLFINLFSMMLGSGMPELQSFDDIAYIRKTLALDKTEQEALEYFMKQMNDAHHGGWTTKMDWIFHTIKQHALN
- test-description: Inhibition of N-terminal His6-tagged recombinant full length human p110alpha/untagged recombinant full length human p85alpha expressed in baculovirus infected Sf21 insect cells using PIP2 as substrate preincubated for 15 mins followed by substrate addition and measured after 1 hr by HTRF assay
quantity: log10(IC50) (log10 of the value in nM)
Remember, log10 of IC50, in nM.

Write down the reported log10(IC50) of CCC(=O)N1CCC(Nc2ncnc3c2nc(-c2cnn(CC)c2C)n3C)CC1 , test system: PI3-kinase p110-alpha/p85-alpha (Homo sapiens, UniProt P42336).
3.08

Identify the measured log10(IC50) of CCn1ncc(-c2nc3c(N[C@H]4CCN(C(=O)C5CCOCC5)C4)ncnc3n2C)c1C for PI3-kinase p110-alpha/p85-alpha (Homo sapiens, UniProt P42336).
1.54

Give the reported log10(IC50) for CCn1ncc(-c2nc3c(N[C@@H](C)C(=O)N4CCOCC4)ncnc3n2C)c1C (system: PI3-kinase p110-alpha/p85-alpha (Homo sapiens, UniProt P42336)).
2.61

Lab request: please report log10(IC50) under test system PI3-kinase p110-alpha/p85-alpha (Homo sapiens, UniProt P42336) for CCC(=O)N1CC[C@@H](Nc2ncnc3c2nc(-c2cnn(CC)c2C)n3C)C1
2.73

Return log10(IC50) measured with PI3-kinase p110-alpha/p85-alpha (Homo sapiens, UniProt P42336) given this molecule: CCn1ncc(-c2nc3c(O[C@H]4CCN(C(=O)C5CCOCC5)C4)ncnc3n2C)c1C
2.43

# get_value(readout= log10(IC50), system= PI3-kinase p110-alpha/p85-alpha (Homo sapiens, UniProt P42336)) for CCC(=O)N1CC[C@H](Nc2ncnc3c2nc(-c2cnn(CC)c2C)n3C)C1
1.97

Quick check: log10(IC50) on PI3-kinase p110-alpha/p85-alpha (Homo sapiens, UniProt P42336), item CCn1ncc(-c2nc3c(N4CCC(n5c(=O)[nH]c6ncccc65)CC4)ncnc3n2C)c1C ?
2.65

Form field: log10(IC50) recorded for CCC(=O)N1CCC[C@H](Nc2ncnc3c2nc(-c2cnn(CC)c2C)n3C)C1 with PI3-kinase p110-alpha/p85-alpha (Homo sapiens, UniProt P42336) (enter value)
2.53

Recall the recorded log10(IC50) for CCn1ncc(-c2nc3c(S[C@H]4CCN(C(=O)C5CCOCC5)C4)ncnc3n2C)c1C with PI3-kinase p110-alpha/p85-alpha (Homo sapiens, UniProt P42336) and state it.
2.78

# get_value(readout= log10(IC50), system= PI3-kinase p110-alpha/p85-alpha (Homo sapiens, UniProt P42336)) for CCn1ncc(-c2nc3c(NC4CN(C(=O)C5CCOCC5)C4)ncnc3n2C)c1C
2.66

Item CCn1ncc(-c2nc3c(Oc4csc(C(=O)N5CCOCC5)c4)ncnc3n2C)c1C with PI3-kinase p110-alpha/p85-alpha (Homo sapiens, UniProt P42336) - log10(IC50)?
3.47

Notebook entry, PI3-kinase p110-alpha/p85-alpha (Homo sapiens, UniProt P42336) assay: log10(IC50) of CCn1ncc(-c2nc3c(NC4CC(=O)N(CC(C)C)C4)ncnc3n2C)c1C (stereo not drawn) = ?
2.08

Give recorded log10(IC50) with PI3-kinase p110-alpha/p85-alpha (Homo sapiens, UniProt P42336) for the following molecule: CC[C@H](Nc1ncnc2c1nc(-c1cnn(CC)c1C)n2C)C(=O)N1C[C@@H](C)O[C@@H](C)C1
2.42

Reported log10(IC50) for PI3-kinase p110-alpha/p85-alpha (Homo sapiens, UniProt P42336), given CC[C@H](Nc1ncnc2c1nc(-c1cnn(CC)c1C)n2C)C(=O)N(C)C ?
3.03

# value lookup — system PI3-kinase p110-alpha/p85-alpha (Homo sapiens, UniProt P42336), readout log10(IC50), item CCC(=O)N1CC(Nc2ncnc3c2nc(-c2cnn(CC)c2C)n3C)C1
2.96

log10(IC50) of CCn1ncc(-c2nc3c(N[C@H]4CC[C@@H](C(=O)N5CCOCC5)C4)ncnc3n2C)c1C on PI3-kinase p110-alpha/p85-alpha (Homo sapiens, UniProt P42336)?
1.95

Could you share what log10(IC50) was measured for CCn1ncc(-c2nc3c(N[C@H]4CCN(C(=O)C5CC5)C4)ncnc3n2C)c1C , tested on PI3-kinase p110-alpha/p85-alpha (Homo sapiens, UniProt P42336)?
1.54

Origin of the recorded values: ChEMBL document CHEMBL4346703
